Assign Bliss interaction score to each entry below.
Tested on: S. pneumoniae D39V
protocol-summary: Bliss interaction score (quartile over a dose matrix) (fitness difference); higher = more antagonism (negative = synergy)
Number, no unit, nothing else.

Please report the measured Bliss interaction score for CO[C@H]1/C=C/O[C@@]2(C)Oc3c(C)c(O)c4c(O)c(c(/C=N/N5CCN(C)CC5)c(O)c4c3C2=O)NC(=O)/C(C)=C\C=C\[C@H](C)[C@H](O)[C@@H](C)[C@@H](O)[C@@H](C)[C@H](OC(C)=O)[C@@H]1C [Rifampicin] + CN[C@@H]1[C@H](O[C@H]2[C@H](O[C@H]3[C@H](O)[C@@H](O)[C@H](N=C(N)N)[C@@H](O)[C@@H]3N=C(N)N)O[C@@H](C)[C@]2(O)C=O)O[C@@H](CO)[C@H](O)[C@H]1O [Streptomycin]
-0.121

Please report the measured Bliss interaction score for CC(=O)NC[C@H]1CN(c2ccc(N3CCOCC3)c(F)c2)C(=O)O1 [Linezolid] + Cc1cc(NS(=O)(=O)c2ccc(N)cc2)no1 [Sulfamethoxazol]
-0.0972

---

System: S. aureus DSM 20231
protocol-summary: Bliss interaction score (quartile over a dose matrix) (fitness difference); higher = more antagonism (negative = synergy)
quantity-measured: Bliss interaction score
Number, no unit, nothing else.

Please report the measured Bliss interaction score for CO[C@@H]1[C@@H](OC(N)=O)[C@@H](O)[C@H](Oc2ccc3c(O)c(NC(=O)c4ccc(O)c(CC=C(C)C)c4)c(=O)oc3c2C)OC1(C)C [Novobiocin] + CC1(C)S[C@@H]2[C@H](NC(=O)Cc3ccccc3)C(=O)N2[C@H]1C(=O)O [PenicillinG]
-0.0356

Please report the measured Bliss interaction score for CO[C@@]12[C@H](COC(N)=O)C3=C(C(=O)C(C)=C(N)C3=O)N1C[C@@H]1N[C@@H]12 [MitomycinC] + Oc1cc(Cl)ccc1Oc1ccc(Cl)cc1Cl [Triclosan]
-0.025

---

Tested on: S. pneumoniae D39V
protocol-summary: Bliss interaction score (quartile over a dose matrix) (fitness difference); higher = more antagonism (negative = synergy)
quantity-measured: Bliss interaction score

Please report the measured Bliss interaction score for CO[C@@]12[C@H](COC(N)=O)C3=C(C(=O)C(C)=C(N)C3=O)N1C[C@@H]1N[C@@H]12 [MitomycinC] + COc1c(N2C[C@@H]3CCCN[C@@H]3C2)c(F)cc2c(=O)c(C(=O)O)cn(C3CC3)c12 [Moxifloxacin]
0.056

Please report the measured Bliss interaction score for CC(=O)NC[C@H]1CN(c2ccc(N3CCOCC3)c(F)c2)C(=O)O1 [Linezolid] + CO[C@@H]1[C@@H](OC(N)=O)[C@@H](O)[C@H](Oc2ccc3c(O)c(NC(=O)c4ccc(O)c(CC=C(C)C)c4)c(=O)oc3c2C)OC1(C)C [Novobiocin]
-0.123

Please report the measured Bliss interaction score for CC[C@H]1OC(=O)[C@H](C)[C@@H](O[C@H]2C[C@@](C)(OC)[C@@H](O)[C@H](C)O2)[C@H](C)[C@@H](O[C@@H]2O[C@H](C)C[C@H](N(C)C)[C@H]2O)[C@](C)(O)C[C@@H](C)C(=O)[C@H](C)[C@@H](O)[C@]1(C)O [Erythromycin] + CC(=O)NC[C@H]1CN(c2ccc(N3CCOCC3)c(F)c2)C(=O)O1 [Linezolid]
0.068

Please report the measured Bliss interaction score for CC[C@H]1OC(=O)[C@H](C)[C@@H](O[C@H]2C[C@@](C)(OC)[C@@H](O)[C@H](C)O2)[C@H](C)[C@@H](O[C@@H]2O[C@H](C)C[C@H](N(C)C)[C@H]2O)[C@](C)(O)C[C@@H](C)C(=O)[C@H](C)[C@@H](O)[C@]1(C)O [Erythromycin] + Cc1cc(NS(=O)(=O)c2ccc(N)cc2)no1 [Sulfamethoxazol]
-0.0479

---

Assign Bliss interaction score to each entry below.
Tested on: S. pneumoniae D39V
protocol-summary: Bliss interaction score (quartile over a dose matrix) (fitness difference); higher = more antagonism (negative = synergy)
Number, no unit, nothing else.

Please report the measured Bliss interaction score for CN[C@H](CC(C)C)C(=O)N[C@H]1C(=O)N[C@@H](CC(N)=O)C(=O)N[C@H]2C(=O)N[C@H]3C(=O)N[C@H](C(=O)N[C@H](C(=O)O)c4cc(O)cc(O)c4-c4cc3ccc4O)[C@H](O[C@H]3C[C@](C)(N)[C@@H](O)[C@H](C)O3)c3ccc(c(Cl)c3)Oc3cc2cc(c3O[C@@H]2O[C@H](CO)[C@@H](O)[C@H](O)[C@H]2O[C@H]2C[C@](C)(NCc3ccc(-c4ccc(Cl)cc4)cc3)[C@@H](O)[C@H](C)O2)Oc2ccc(cc2Cl)[C@H]1O [Oritavancin] + COc1cc(Cc2cnc(N)nc2N)cc(OC)c1OC [Trimethoprim]
0.078

Please report the measured Bliss interaction score for CC(=O)NC[C@H]1CN(c2ccc(N3CCOCC3)c(F)c2)C(=O)O1 [Linezolid] + CO[C@H]1/C=C/O[C@@]2(C)Oc3c(C)c(O)c4c(O)c(c(/C=N/N5CCN(C)CC5)c(O)c4c3C2=O)NC(=O)/C(C)=C\C=C\[C@H](C)[C@H](O)[C@@H](C)[C@@H](O)[C@@H](C)[C@H](OC(C)=O)[C@@H]1C [Rifampicin]
-0.0681

---

Test system: B. subtilis 168
protocol-summary: fitness (endpoint OD595 vs no drug) (fraction); higher = more growth
condition-summary: first compound 2 µg/mL; partner 0.125 µg/mL; one replicate
quantity-measured: fitness
Number, no unit, nothing else.

Please report the measured fitness for CN[C@@H]1[C@H](O)[C@H](NC)[C@H]2O[C@@]3(O)C(=O)C[C@@H](C)O[C@H]3O[C@@H]2[C@H]1O [Spectinomycin] + COc1cc(Cc2cnc(N)nc2N)cc(OC)c1OC [Trimethoprim]
0.707

Please report the measured fitness for CN[C@@H]1[C@H](O[C@H]2[C@H](O[C@H]3[C@H](O)[C@@H](O)[C@H](N=C(N)N)[C@@H](O)[C@@H]3N=C(N)N)O[C@@H](C)[C@]2(O)C=O)O[C@@H](CO)[C@H](O)[C@H]1O [Streptomycin] + CN(C)c1cc(NC(=O)CNC(C)(C)C)c(O)c2c1C[C@H]1C[C@H]3[C@H](N(C)C)C(O)=C(C(N)=O)C(=O)[C@@]3(O)C(O)=C1C2=O [Tigecycline]
0.98

Please report the measured fitness for CN[C@@H]1[C@H](O[C@H]2[C@H](O[C@H]3[C@H](O)[C@@H](O)[C@H](N=C(N)N)[C@@H](O)[C@@H]3N=C(N)N)O[C@@H](C)[C@]2(O)C=O)O[C@@H](CO)[C@H](O)[C@H]1O [Streptomycin] + COc1cc(Cc2cnc(N)nc2N)cc(OC)c1OC [Trimethoprim]
0.605

---

Assign Bliss interaction score to each entry below.
Tested on: B. subtilis 168
protocol-summary: Bliss interaction score (quartile over a dose matrix) (fitness difference); higher = more antagonism (negative = synergy)
condition-summary: main component drawn
Number, no unit, nothing else.

Please report the measured Bliss interaction score for CC[C@H](C)[C@H](N)C1=N[C@H](C(=O)N[C@@H](CC(C)C)C(=O)N[C@H](CCC(=O)O)C(=O)N[C@H](C(=O)N[C@H]2CCCCNC(=O)[C@H](CC(N)=O)NC(=O)[C@@H](CC(=O)O)NC(=O)[C@H](Cc3cnc[nH]3)NC(=O)[C@@H](Cc3ccccc3)NC(=O)[C@H]([C@@H](C)CC)NC(=O)[C@@H](CCCN)NC2=O)[C@@H](C)CC)CS1 [Bacitracin] + COc1c(N2C[C@@H]3CCCN[C@@H]3C2)c(F)cc2c(=O)c(C(=O)O)cn(C3CC3)c12 [Moxifloxacin]
-0.0316

Please report the measured Bliss interaction score for CC[C@H](C)[C@H](N)C1=N[C@H](C(=O)N[C@@H](CC(C)C)C(=O)N[C@H](CCC(=O)O)C(=O)N[C@H](C(=O)N[C@H]2CCCCNC(=O)[C@H](CC(N)=O)NC(=O)[C@@H](CC(=O)O)NC(=O)[C@H](Cc3cnc[nH]3)NC(=O)[C@@H](Cc3ccccc3)NC(=O)[C@H]([C@@H](C)CC)NC(=O)[C@@H](CCCN)NC2=O)[C@@H](C)CC)CS1 [Bacitracin] + CC1(C)S[C@@H]2[C@H](NC(=O)Cc3ccccc3)C(=O)N2[C@H]1C(=O)O [PenicillinG]
-0.164

---

Tested on: S. aureus Newman
protocol-summary: Bliss interaction score (quartile over a dose matrix) (fitness difference); higher = more antagonism (negative = synergy)
Assign Bliss interaction score to each entry below.
Number, no unit, nothing else.

Please report the measured Bliss interaction score for CO[C@@]12[C@H](COC(N)=O)C3=C(C(=O)C(C)=C(N)C3=O)N1C[C@@H]1N[C@@H]12 [MitomycinC] + COc1ccc(C[C@H](N)C(=O)N[C@H]2[C@@H](O)[C@H](n3cnc4c(N(C)C)ncnc43)O[C@@H]2CO)cc1 [Puromycin]
0.0521

Please report the measured Bliss interaction score for CN[C@H](CC(C)C)C(=O)N[C@H]1C(=O)N[C@@H](CC(N)=O)C(=O)N[C@H]2C(=O)N[C@H]3C(=O)N[C@H](C(=O)N[C@H](C(=O)O)c4cc(O)cc(O)c4-c4cc3ccc4O)[C@H](O[C@H]3C[C@](C)(N)[C@@H](O)[C@H](C)O3)c3ccc(c(Cl)c3)Oc3cc2cc(c3O[C@@H]2O[C@H](CO)[C@@H](O)[C@H](O)[C@H]2O[C@H]2C[C@](C)(NCc3ccc(-c4ccc(Cl)cc4)cc3)[C@@H](O)[C@H](C)O2)Oc2ccc(cc2Cl)[C@H]1O [Oritavancin] + CN1C2=CC=CC=C2N=C3C1=CC=CC3=O [Pyocyanin]
-0.105

Please report the measured Bliss interaction score for CO[C@H]1/C=C/O[C@@]2(C)Oc3c(C)c(O)c4c(O)c(c(/C=N/N5CCN(C)CC5)c(O)c4c3C2=O)NC(=O)/C(C)=C\C=C\[C@H](C)[C@H](O)[C@@H](C)[C@@H](O)[C@@H](C)[C@H](OC(C)=O)[C@@H]1C [Rifampicin] + CN(C)c1cc(NC(=O)CNC(C)(C)C)c(O)c2c1C[C@H]1C[C@H]3[C@H](N(C)C)C(O)=C(C(N)=O)C(=O)[C@@]3(O)C(O)=C1C2=O [Tigecycline]
-0.0189

Please report the measured Bliss interaction score for CO[C@@]12[C@H](COC(N)=O)C3=C(C(=O)C(C)=C(N)C3=O)N1C[C@@H]1N[C@@H]12 [MitomycinC] + Oc1cc(Cl)ccc1Oc1ccc(Cl)cc1Cl [Triclosan]
-0.0343

Please report the measured Bliss interaction score for CO[C@@]12[C@H](COC(N)=O)C3=C(C(=O)C(C)=C(N)C3=O)N1C[C@@H]1N[C@@H]12 [MitomycinC] + O=C1CN(/N=C/c2ccc([N+](=O)[O-])o2)C(=O)N1 [Nitrofurantoin]
-0.0345

Please report the measured Bliss interaction score for CC[C@H]1OC(=O)[C@H](C)[C@@H](O[C@H]2C[C@@](C)(OC)[C@@H](O)[C@H](C)O2)[C@H](C)[C@@H](O[C@@H]2O[C@H](C)C[C@H](N(C)C)[C@H]2O)[C@](C)(O)C[C@@H](C)C(=O)[C@H](C)[C@@H](O)[C@]1(C)O [Erythromycin] + C[n+]1ccc(-c2cc[n+](C)cc2)cc1 [Paraquat]
0.0479

Please report the measured Bliss interaction score for CC(=O)NC[C@H]1CN(c2ccc(N3CCOCC3)c(F)c2)C(=O)O1 [Linezolid] + CN[C@@H]1[C@H](O)[C@H](NC)[C@H]2O[C@@]3(O)C(=O)C[C@@H](C)O[C@H]3O[C@@H]2[C@H]1O [Spectinomycin]
-0.12

Please report the measured Bliss interaction score for CC(=O)NC[C@H]1CN(c2ccc(N3CCOCC3)c(F)c2)C(=O)O1 [Linezolid] + Cc1cc(NS(=O)(=O)c2ccc(N)cc2)no1 [Sulfamethoxazol]
0.0723

Please report the measured Bliss interaction score for CO[C@@H]1[C@@H](OC(N)=O)[C@@H](O)[C@H](Oc2ccc3c(O)c(NC(=O)c4ccc(O)c(CC=C(C)C)c4)c(=O)oc3c2C)OC1(C)C [Novobiocin] + Oc1cc(Cl)ccc1Oc1ccc(Cl)cc1Cl [Triclosan]
-0.0304

Please report the measured Bliss interaction score for CC[C@H]1OC(=O)[C@H](C)[C@@H](O[C@H]2C[C@@](C)(OC)[C@@H](O)[C@H](C)O2)[C@H](C)[C@@H](O[C@@H]2O[C@H](C)C[C@H](N(C)C)[C@H]2O)[C@](C)(O)C[C@@H](C)C(=O)[C@H](C)[C@@H](O)[C@]1(C)O [Erythromycin] + CC1=C\[C@@H](O)CC(=O)Cc2nc(co2)C(=O)N2CCC=C2C(=O)O[C@H](C(C)C)[C@H](C)/C=C/C(=O)NC\C=C\1 [Virginiamycin M1]
0.066

Please report the measured Bliss interaction score for CO[C@H]1/C=C/O[C@@]2(C)Oc3c(C)c(O)c4c(O)c(c(/C=N/N5CCN(C)CC5)c(O)c4c3C2=O)NC(=O)/C(C)=C\C=C\[C@H](C)[C@H](O)[C@@H](C)[C@@H](O)[C@@H](C)[C@H](OC(C)=O)[C@@H]1C [Rifampicin] + Cn1nnc(-c2ccc(-c3ccc(N4C[C@H](CO)OC4=O)cc3F)cn2)n1 [Tedizolid]
-0.0238

Please report the measured Bliss interaction score for CC[C@H]1OC(=O)[C@H](C)[C@@H](O[C@H]2C[C@@](C)(OC)[C@@H](O)[C@H](C)O2)[C@H](C)[C@@H](O[C@@H]2O[C@H](C)C[C@H](N(C)C)[C@H]2O)[C@](C)(O)C[C@@H](C)C(=O)[C@H](C)[C@@H](O)[C@]1(C)O [Erythromycin] + Cn1nnc(-c2ccc(-c3ccc(N4C[C@H](CO)OC4=O)cc3F)cn2)n1 [Tedizolid]
-0.07

Please report the measured Bliss interaction score for CN[C@@H]1[C@H](O)[C@H](NC)[C@H]2O[C@@]3(O)C(=O)C[C@@H](C)O[C@H]3O[C@@H]2[C@H]1O [Spectinomycin] + Cc1cc(NS(=O)(=O)c2ccc(N)cc2)no1 [Sulfamethoxazol]
0.0687
